System: PSMA-expressing LNCAP cancer xenografts
Test: Biodistribution and tumor-to-background contrast ratios of 18F-labeled tracers
Format: in vivo, mouse (NODSCID 1L2RγKO male mice)
Conditions: 1 h
Readout Kind: Tumor:kidney contrast ratio

{"Compound": "C[N+](C)(Cc1ccc(C(=O)NCCCC[C@H](NC(=O)N[C@@H](CCC(=O)O)C(=O)O)C(=O)O)cc1)C[B-](F)(F)[18F]", "Value": 0.07}

P: C[N+](C)(Cc1cn(Cc2ccc(C(=O)NCCCC[C@H](NC(=O)N[C@@H](CCC(=O)O)C(=O)O)C(=O)O)cn2)nn1)C[B-](F)(F)[18F] [^18F-HTK01130]
Q: C[N+](C)(Cc1cn(CC(=O)NC[C@H]2CC[C@H](C(=O)N[C@@H](Cc3ccc4ccccc4c3)C(=O)NCCCC[C@H](NC(=O)N[C@@H](CCC(=O)O)C(=O)O)C(=O)O)CC2)nn1)C[B-](F)(F)[18F] [^18F-HTK01157]
# compare Tumor:kidney contrast ratio for P vs Q ; return the one with the smaller value Write the label of whichever entry you select. P
(P: 0.07, Q: 0.21)

---

Test system: PSMA-expressing LNCAP cancer xenografts
Experiment: Biodistribution and tumor-to-background contrast ratios of 18F-labeled tracers
Format: in vivo, mouse (NODSCID 1L2RγKO male mice)
Conditions: 1 h
Readout Kind: Biodistribution Blood (% ID/g)

{"Molecule": "C[N+](C)(Cc1cn(Cc2ccc(C(=O)NCCCC[C@H](NC(=O)N[C@@H](CCC(=O)O)C(=O)O)C(=O)O)cn2)nn1)C[B-](F)(F)[18F] [^18F-HTK01130]", "Measured On": "PSMA-expressing LNCAP cancer xenografts", "Unit": "% ID/g", "Biodistribution Blood": 0.58}
{"Molecule": "C[N+](C)(Cc1ccc(C(=O)NCCCC[C@H](NC(=O)N[C@@H](CCC(=O)O)C(=O)O)C(=O)O)cc1)C[B-](F)(F)[18F] [F-18 HTK-01069]", "Measured On": "PSMA-expressing LNCAP cancer xenografts", "Unit": "% ID/g", "Biodistribution Blood": 0.57}
{"Molecule": "O=C(O)CC[C@H](NC(=O)N[C@@H](CCCCNC(=O)c1ccc(Cn2cc(C[n+]3ccc([B-](F)(F)[18F])cc3)nn2)nc1)C(=O)O)C(=O)O [^18F-PSMA PyrBF3]", "Measured On": "PSMA-expressing LNCAP cancer xenografts", "Unit": "% ID/g", "Biodistribution Blood": 0.74}
